meta.source: ChEMBL document CHEMBL3085708

biological target: Histamine H3 receptor (Homo sapiens); experiment: Displacement of [3H]-methylhistamine from human histamine H3 receptor transfected in human 293 cells after 1 hr by scintillation counting analysis
Sequence (Q9Y5N1 whole entry): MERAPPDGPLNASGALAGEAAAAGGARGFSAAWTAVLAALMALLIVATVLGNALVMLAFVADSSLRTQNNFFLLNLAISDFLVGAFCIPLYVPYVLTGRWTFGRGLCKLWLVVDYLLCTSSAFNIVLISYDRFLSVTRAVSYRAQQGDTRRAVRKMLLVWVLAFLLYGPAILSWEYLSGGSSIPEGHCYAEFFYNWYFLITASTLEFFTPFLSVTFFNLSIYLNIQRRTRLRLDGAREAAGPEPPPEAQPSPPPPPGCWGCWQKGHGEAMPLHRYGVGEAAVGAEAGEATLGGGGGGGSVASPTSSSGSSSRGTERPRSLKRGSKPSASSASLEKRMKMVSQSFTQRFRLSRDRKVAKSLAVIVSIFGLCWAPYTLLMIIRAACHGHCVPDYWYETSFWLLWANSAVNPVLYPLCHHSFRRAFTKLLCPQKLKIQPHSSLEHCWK
reported metric: Ki (nM)
Numbers only, in nM.

Query: Find the recorded Ki belonging to Cc1cc(N2CC[C@H](N3CCC[C@@H]3C)C2)ccc1NC(=O)c1c(C)noc1C and report it.
Reply: 0.1

* * *

assay: Drug metabolism in guinea pig liver microsomes; type: ADME, Cavia porcellus, Microsome; details: read-out: Drug metabolism
reported metric: metabolised (%)
Answers are plain numbers, in %.

Query: For the compound Cc1cc(N2CC[C@H](N3CCC[C@@H]3C)C2)ccc1NC(=O)c1c(C)noc1C , what metabolised is on record?
Reply: 35

* * *

assay: Ratio of AUC (0 to infinity) in brain to plasma in Sprague-Dawley rat at 2 mg/kg, iv; type: ADME, organism-based; design: dose 2 mg/kg, route intravenous; conditions: brain and plasma, read-out: Ratio AUC
reported metric: Kp
Give bare numbers.

Query: Look up Kp: Cc1cc(N2CC[C@H](N3CCC[C@@H]3C)C2)ccc1NC(=O)c1c(C)noc1C
Reply: 1.1

* * *

assay: Elimination half life in Sprague-Dawley rat brain at 2 mg/kg, iv; type: ADME, organism-based; set-up: dose 2 mg/kg, route intravenous; conditions: read-out: beta t1/2 (converted)
reported metric: half-life (h)
One number for each entry, in h.

Query: I'd like to know its half-life. The compound in question is Cc1cc(N2CC[C@H](N3CCC[C@@H]3C)C2)ccc1NC(=O)c1c(C)noc1C
Reply: 1.8

* * *

test: AUC (0 to infinity) in OF1 mouse plasma at 2 mg/kg, iv; format: ADME, organism-based; design: time infinity, dose 2 mg/kg, route intravenous
reported metric: AUC(0-inf) (ng·h/mL)
One number for each entry, in ng·h/mL.

Query: For Cc1cc(N2CC[C@H](N3CCC[C@@H]3C)C2)ccc1NC(=O)c1c(C)noc1C , what is its reported AUC(0-inf)?
Reply: 670

* * *

target: Voltage-gated inwardly rectifying potassium channel KCNH2 (Homo sapiens); assay: Inhibition of human ERG current transfected in CHO cells by patch clamp assay
Sequence (Q12809 whole entry): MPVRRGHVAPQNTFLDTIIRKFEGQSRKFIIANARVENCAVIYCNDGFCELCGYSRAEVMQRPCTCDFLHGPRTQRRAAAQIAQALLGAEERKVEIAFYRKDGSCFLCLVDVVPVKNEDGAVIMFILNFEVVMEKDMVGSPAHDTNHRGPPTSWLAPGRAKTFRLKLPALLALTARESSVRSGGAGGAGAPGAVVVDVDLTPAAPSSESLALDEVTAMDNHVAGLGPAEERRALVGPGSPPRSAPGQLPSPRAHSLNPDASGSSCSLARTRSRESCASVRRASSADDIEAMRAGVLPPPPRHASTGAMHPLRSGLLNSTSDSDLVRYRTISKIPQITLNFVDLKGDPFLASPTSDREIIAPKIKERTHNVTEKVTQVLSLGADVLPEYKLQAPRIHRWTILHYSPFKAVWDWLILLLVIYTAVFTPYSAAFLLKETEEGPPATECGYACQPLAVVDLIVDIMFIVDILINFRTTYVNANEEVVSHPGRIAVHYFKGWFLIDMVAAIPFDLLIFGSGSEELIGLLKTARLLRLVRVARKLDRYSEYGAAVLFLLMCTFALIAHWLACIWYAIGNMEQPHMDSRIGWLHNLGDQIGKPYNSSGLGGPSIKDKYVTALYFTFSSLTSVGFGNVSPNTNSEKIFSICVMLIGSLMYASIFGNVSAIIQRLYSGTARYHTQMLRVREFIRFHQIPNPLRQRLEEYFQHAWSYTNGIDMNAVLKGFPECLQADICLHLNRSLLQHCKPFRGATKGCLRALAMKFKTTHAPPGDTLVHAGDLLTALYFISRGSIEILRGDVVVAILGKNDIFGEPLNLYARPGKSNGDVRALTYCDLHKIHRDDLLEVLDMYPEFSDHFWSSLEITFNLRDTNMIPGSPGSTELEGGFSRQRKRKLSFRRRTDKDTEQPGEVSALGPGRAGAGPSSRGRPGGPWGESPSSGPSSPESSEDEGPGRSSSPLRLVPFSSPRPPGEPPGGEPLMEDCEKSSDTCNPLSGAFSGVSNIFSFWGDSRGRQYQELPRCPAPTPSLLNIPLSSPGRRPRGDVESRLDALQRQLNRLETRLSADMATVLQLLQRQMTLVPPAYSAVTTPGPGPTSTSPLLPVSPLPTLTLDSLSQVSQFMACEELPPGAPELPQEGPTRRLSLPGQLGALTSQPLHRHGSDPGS
reported metric: IC50 (µM)
Numbers only, in µM.

Query: Given Cc1cc(N2CC[C@H](N3CCC[C@@H]3C)C2)ccc1NC(=O)c1c(C)noc1C , state its recorded IC50.
Reply: 37

* * *

assay: Solubility of the compound in form of crystalline free base in gastrointestinal tract simulated media; type: physicochemical
reported metric: solubility

Query: // lookup solubility for Cc1cc(N2CC[C@H](N3CCC[C@@H]3C)C2)ccc1NC(=O)c1c(C)noc1C
Reply: > 2000 µg/mL

* * *

experiment: Drug metabolism in rat plasma at 100 ng/ml after 4 hrs; assay type: ADME, cell-free; conditions: read-out: Drug metabolism
reported metric: metabolised at 4 h, 100 ng/ml

Query: What measured metabolised at 4 h, 100 ng/ml goes with Cc1cc(N2CC[C@H](N3CCC[C@@H]3C)C2)ccc1NC(=O)c1c(C)noc1C ?
Reply: < 5%

* * *

test: Elimination half life in Sprague-Dawley rat plasma at 2 mg/kg, iv; type: ADME, organism-based; design: dose 2 mg/kg, route intravenous; conditions: read-out: beta t1/2 (converted)
reported metric: half-life (h)
One number for each entry, in h.

Query: For Cc1cc(N2CC[C@H](N3CCC[C@@H]3C)C2)ccc1NC(=O)c1c(C)noc1C , what is its reported half-life?
Reply: 1.2

* * *

experiment: Elimination half life in Sprague-Dawley rat plasma at 10 mg/kg, po; format: ADME, organism-based; set-up: dose 10 mg/kg, route oral; settings: read-out: beta t1/2 (converted)
reported metric: half-life (h)
Give bare numbers, in h.

Query: # get_value(readout='half-life', item= Cc1cc(N2CC[C@H](N3CCC[C@@H]3C)C2)ccc1NC(=O)c1c(C)noc1C )
Reply: 7.8

* * *

assay: Drug metabolism in mouse plasma at 100 ng/ml after 4 hrs; assay type: ADME, cell-free; conditions: read-out: Drug metabolism
reported metric: metabolised at 4 h, 100 ng/ml

Query: Given the molecule Cc1cc(N2CC[C@H](N3CCC[C@@H]3C)C2)ccc1NC(=O)c1c(C)noc1C , what is its reported metabolised at 4 h, 100 ng/ml?
Reply: < 5%

* * *

experiment: Cmax in OF1 mouse brain at 10 mg/kg, po; assay type: ADME, organism-based; set-up: dose 10 mg/kg, route oral
reported metric: Cmax (ng/mL)
One number for each entry, in ng/mL.

Query: Which Cmax is reported for this compound? Cc1cc(N2CC[C@H](N3CCC[C@@H]3C)C2)ccc1NC(=O)c1c(C)noc1C
Reply: 2620

* * *

assay: Elimination half life in OF1 mouse brain at 2 mg/kg, iv; assay type: ADME, organism-based; parameters: dose 2 mg/kg, route intravenous; details: read-out: beta t1/2 (converted)
reported metric: half-life

Query: May I ask what half-life has been recorded for Cc1cc(N2CC[C@H](N3CCC[C@@H]3C)C2)ccc1NC(=O)c1c(C)noc1C ?
Reply: 55.8 min

* * *

test: AUC (0 to infinity) in Sprague-Dawley rat plasma at 10 mg/kg, po; format: ADME, organism-based; parameters: time infinity, dose 10 mg/kg, route oral
reported metric: AUC(0-inf) (ng·h/mL)
Give bare numbers, in ng·h/mL.

Query: State the recorded AUC(0-inf) for this entry: Cc1cc(N2CC[C@H](N3CCC[C@@H]3C)C2)ccc1NC(=O)c1c(C)noc1C
Reply: 3150

* * *

assay: Drug metabolism in mouse liver microsomes; type: ADME, Microsome; conditions: read-out: Drug metabolism
reported metric: metabolised

Query: Please look up its metabolised: Cc1cc(N2CC[C@H](N3CCC[C@@H]3C)C2)ccc1NC(=O)c1c(C)noc1C
Reply: < 5%

* * *

assay: Dissociation constant, pKa of the compound; assay type: physicochemical
reported metric: pKa

Consider the following illustrative entries.
> print(dat)
                  compound.structure.string  value.reported
1  Cc1cc(N2CC[C@H](N3CCC[C@@H]3C)C2)ccc1NC(=O)c1cc(F)ccc1C            10.1
2  Cc1nc(N2CC[C@H](N3CCC[C@@H]3C)C2)ccc1NC(=O)c1ccccc1             9.9
3  Cc1nc(N2CC[C@H](N3CCC[C@@H]3C)C2)ccc1NS(=O)(=O)c1ccc(F)c(F)c1              10

Give me pKa for each of these compounds, listed below.
1. Cc1cc(C(=O)Nc2ccc(N3CC[C@H](N4CCC[C@@H]4C)C3)cc2C)on1
2. Cc1nc(N2CC[C@H](N3CCC[C@@H]3C)C2)ccc1NC(=O)c1cccc2ccccc12
3. Cc1cc(N2CC[C@H](N3CCC[C@@H]3C)C2)ccc1NC(=O)c1ccco1
4. Cc1cc(N2CC[C@H](N3CCC[C@@H]3C)C2)ccc1NC(=O)c1ccoc1

Reply:
[10.1, 9.9, 10.1, 10.1]

The following compounds each have a reported value; give each one's pKa.
1. Cc1nc(C(=O)Nc2ccc(N3CC[C@H](N4CCC[C@@H]4C)C3)cc2C)co1
2. Cc1nc(N2CC[C@H](N3CCC[C@@H]3C)C2)ccc1NC(=O)Cc1ccccc1
3. Cc1cc(C(=O)Nc2ccc(N3CC[C@H](N4CCC[C@@H]4C)C3)cc2C)n[nH]1
4. Cc1cc(N2CC[C@H](N3CCC[C@@H]3C)C2)ccc1NC(=O)c1cc(C)n(C)n1
5. Cc1cc(N2CC[C@H](N3CCC[C@@H]3C)C2)ccc1NC(=O)c1c(C)noc1C
6. Cc1cccc(C(=O)Nc2ccc(N3CC[C@H](N4CCC[C@@H]4C)C3)cc2C)n1

Reply:
10.1
9.9
12.1
10.1
10.1
10.1

* * *

test system: Mus musculus; assay: Plasma clearance in OF1 mouse at 2 mg/kg, iv; type: ADME, organism-based; set-up: dose 2 mg/kg, route intravenous; settings: in vivo
reported metric: clearance (mL/min/kg)
Give bare numbers, in mL/min/kg.

Query: Using the record for Cc1cc(N2CC[C@H](N3CCC[C@@H]3C)C2)ccc1NC(=O)c1c(C)noc1C , report its clearance.
Reply: 50

* * *

target: Cytochrome P450 3A4 (Homo sapiens, UniProt P08684); assay: Inhibition of CYP3A4 (unknown origin) after 4 hrs; format: ADME
Sequence (P08684 whole entry): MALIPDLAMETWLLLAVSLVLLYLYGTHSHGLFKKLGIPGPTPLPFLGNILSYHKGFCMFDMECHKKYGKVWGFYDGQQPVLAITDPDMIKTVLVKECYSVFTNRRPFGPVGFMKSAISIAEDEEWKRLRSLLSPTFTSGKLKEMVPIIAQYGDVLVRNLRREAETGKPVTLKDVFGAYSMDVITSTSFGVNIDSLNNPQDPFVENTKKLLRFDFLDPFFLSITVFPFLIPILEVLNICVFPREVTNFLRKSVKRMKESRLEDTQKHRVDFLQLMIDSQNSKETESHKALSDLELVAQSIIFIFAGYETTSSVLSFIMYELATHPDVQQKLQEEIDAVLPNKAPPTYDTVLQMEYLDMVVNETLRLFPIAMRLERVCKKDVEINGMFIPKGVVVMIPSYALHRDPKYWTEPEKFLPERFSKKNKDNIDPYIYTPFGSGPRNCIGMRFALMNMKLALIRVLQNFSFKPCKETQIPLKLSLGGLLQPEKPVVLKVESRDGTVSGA
reported metric: IC50

Query: Field request: IC50 | item: Cc1cc(N2CC[C@H](N3CCC[C@@H]3C)C2)ccc1NC(=O)c1c(C)noc1C
Reply: > 100 µM

* * *

system: Rattus norvegicus; assay: Plasma clearance in Sprague-Dawley rat at 2 mg/kg, iv; format: ADME, organism-based; design: dose 2 mg/kg, route intravenous; details: in vivo
reported metric: clearance (mL/min/kg)
Numbers only, in mL/min/kg.

Query: Item under review: Cc1cc(N2CC[C@H](N3CCC[C@@H]3C)C2)ccc1NC(=O)c1c(C)noc1C . Reported clearance?
Reply: 30

* * *

assay: Elimination half life in Sprague-Dawley rat brain at 10 mg/kg, po; assay type: ADME, organism-based; parameters: dose 10 mg/kg, route oral; conditions: read-out: beta t1/2 (converted)
reported metric: half-life (h)
Give bare numbers, in h.

Query: Entry Cc1cc(N2CC[C@H](N3CCC[C@@H]3C)C2)ccc1NC(=O)c1c(C)noc1C has what half-life?
Reply: 9.4
